B1: library; numbered along this chain (parent)
chain: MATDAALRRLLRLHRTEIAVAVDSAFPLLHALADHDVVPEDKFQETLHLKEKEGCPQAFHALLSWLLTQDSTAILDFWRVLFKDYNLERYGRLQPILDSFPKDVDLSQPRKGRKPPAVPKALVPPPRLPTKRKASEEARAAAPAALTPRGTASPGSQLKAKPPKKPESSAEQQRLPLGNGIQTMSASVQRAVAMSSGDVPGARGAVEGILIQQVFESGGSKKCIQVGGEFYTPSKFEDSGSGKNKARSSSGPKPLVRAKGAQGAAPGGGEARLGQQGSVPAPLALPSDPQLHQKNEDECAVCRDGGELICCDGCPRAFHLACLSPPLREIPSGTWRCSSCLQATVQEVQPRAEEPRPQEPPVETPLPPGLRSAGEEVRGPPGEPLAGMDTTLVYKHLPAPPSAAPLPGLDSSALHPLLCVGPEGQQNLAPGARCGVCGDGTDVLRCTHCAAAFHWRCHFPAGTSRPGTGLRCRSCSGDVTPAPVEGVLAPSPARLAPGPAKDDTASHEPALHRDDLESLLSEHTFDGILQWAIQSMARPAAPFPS

Variants of: B1
Experiment: AIRE transcriptional activation functional score (insulin promoter-GFP; nonsense median 0, synonymous median 1) (normalised score); higher = higher AIRE activity (more reporter activation)
Details: with insulin promoter-GFP reporter in HEK293
AIRE transcriptional activation functional score values by entry
Format: numeric value only, no unit, no commentary.

// known answers, use as guide
{"columns": ["variant.spec", "data.value"],
 "data": [
  ["P355M", 0.914],
  ["A352S", 1]
]}

Let us move to another entry and its AIRE transcriptional activation functional score.
Measured AIRE transcriptional activation functional score of A541E : 0.858
